molecular target: KRAS G12C (Homo sapiens, UniProt P01116, G12C); construct: purchased Reactionbiology; assay: KRAS G12C NEA-HTRF experiment (SOS1-catalyzed displacement of GDP by GTP); assay type: biochemical
Sequence (P01116 1-188 isoform P01116-2 G12C): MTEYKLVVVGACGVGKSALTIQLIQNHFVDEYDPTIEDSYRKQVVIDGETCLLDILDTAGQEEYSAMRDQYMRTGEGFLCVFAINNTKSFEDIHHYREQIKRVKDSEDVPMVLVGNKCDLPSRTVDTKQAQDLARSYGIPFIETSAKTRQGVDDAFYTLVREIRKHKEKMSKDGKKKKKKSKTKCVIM
measure: IC50 (nM)

molecule	IC50, nM
C=CC(=O)N1CCN2C(=O)c3c(N4C[C@@H](N5CCN(C)CC5)CC4(C)C)nc(-c4ccccc4F)c(Cl)c3OC[C@H]2C1 (single isomer, unassigned) [Z454-1]	9.3

a: C=CC(=O)N1CCN2C(=O)c3c(N4C[C@H](O)CC4(C)C)nc(-c4ccccc4F)c(Cl)c3OC[C@H]2C1 (single isomer, unassigned) [Z325-2]
b: C=CC(=O)N1CCN2C(=O)c3c(N4CCN(C(C)=O)C[C@@H]4C)nc(-c4c(O)cccc4F)c(Cl)c3OC[C@H]2C1 [Z313-1]
Given a and given b , which shows the smaller recorded IC50? // caller expects the label of the chosen entry
b

Data provenance is patent US20230203060A1.
